Origin of measurements: ChEMBL document CHEMBL4257503

Molecular target: Serine/threonine-protein kinase PAK 1 (Homo sapiens)
Sequence (Q13153 whole entry): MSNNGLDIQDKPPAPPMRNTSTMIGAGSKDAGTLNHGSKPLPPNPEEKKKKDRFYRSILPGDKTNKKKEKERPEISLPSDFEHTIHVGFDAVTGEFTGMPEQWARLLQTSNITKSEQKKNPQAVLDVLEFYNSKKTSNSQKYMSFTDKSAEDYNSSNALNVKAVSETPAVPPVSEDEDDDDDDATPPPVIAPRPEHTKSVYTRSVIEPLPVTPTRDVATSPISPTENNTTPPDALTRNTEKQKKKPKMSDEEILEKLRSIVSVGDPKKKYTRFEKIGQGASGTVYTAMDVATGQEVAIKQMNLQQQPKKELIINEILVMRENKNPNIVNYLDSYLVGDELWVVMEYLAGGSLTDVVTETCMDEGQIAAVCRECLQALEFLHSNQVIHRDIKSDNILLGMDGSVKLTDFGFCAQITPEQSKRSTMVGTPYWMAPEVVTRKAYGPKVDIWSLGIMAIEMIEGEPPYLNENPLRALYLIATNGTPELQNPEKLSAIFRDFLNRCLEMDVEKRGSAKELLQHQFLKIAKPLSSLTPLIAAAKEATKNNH
pIC50: −log10 of the molar value.
readout.label: pIC50

query: # query: pIC50 of entry CC(=O)n1nc(C)c(-c2ccc(Cl)c(Cl)c2)c1N
result: < 4.00

---

Assay: Cytotoxicity against human EJM cells assessed as cell viability at 25 uM after 6 hrs by CellTiter Glo luminescent assay relative to control
Format: cell-based
Conditions: read-out: Activity
readout.label: viability at 6 h, 25 µM

Field: example entries. Status: answers known.
query: # query: viability at 6 h, 25 µM of entry Cc1nn(C(=O)C2CCCCC2)c(N)c1-c1ccc(Cl)c(Cl)c1
result: ≥ 80%

query: Check Cc1nn(C(=O)C2CCC2)c(N)c1-c1ccc(Cl)c(Cl)c1 too.
result: ≥ 80%

Continuing:
query: # query: viability at 6 h, 25 µM of entry CC(=O)n1nc(C)c(-c2ccc(Cl)c(Cl)c2)c1N
result: ≥ 80%

---

Target: Serine/threonine-protein kinase PLK1 (Homo sapiens, UniProt P53350)
Sequence (P53350 whole entry): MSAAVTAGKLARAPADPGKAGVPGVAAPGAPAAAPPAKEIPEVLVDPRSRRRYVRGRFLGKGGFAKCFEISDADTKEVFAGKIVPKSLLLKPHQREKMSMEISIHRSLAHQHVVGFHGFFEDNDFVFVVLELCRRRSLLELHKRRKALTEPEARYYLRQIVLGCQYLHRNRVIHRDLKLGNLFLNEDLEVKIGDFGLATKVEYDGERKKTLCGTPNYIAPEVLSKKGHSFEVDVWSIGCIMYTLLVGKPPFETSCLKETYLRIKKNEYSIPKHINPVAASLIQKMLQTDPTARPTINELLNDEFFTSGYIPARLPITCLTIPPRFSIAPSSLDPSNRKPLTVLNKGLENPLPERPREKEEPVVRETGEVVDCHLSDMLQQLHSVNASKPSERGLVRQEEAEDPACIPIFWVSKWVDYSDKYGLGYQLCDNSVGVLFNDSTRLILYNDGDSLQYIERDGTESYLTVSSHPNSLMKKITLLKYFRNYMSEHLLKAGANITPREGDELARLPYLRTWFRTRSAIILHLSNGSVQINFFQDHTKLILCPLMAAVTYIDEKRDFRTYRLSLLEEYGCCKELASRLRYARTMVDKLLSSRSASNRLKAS
readout.label: IC50

query: # query: IC50 of entry CC(=O)n1nc(C)c(-c2ccc(Cl)c(Cl)c2)c1N
result: > 100 µM

---

Biological target: Epidermal growth factor receptor (Homo sapiens)
Sequence (P00533 whole entry): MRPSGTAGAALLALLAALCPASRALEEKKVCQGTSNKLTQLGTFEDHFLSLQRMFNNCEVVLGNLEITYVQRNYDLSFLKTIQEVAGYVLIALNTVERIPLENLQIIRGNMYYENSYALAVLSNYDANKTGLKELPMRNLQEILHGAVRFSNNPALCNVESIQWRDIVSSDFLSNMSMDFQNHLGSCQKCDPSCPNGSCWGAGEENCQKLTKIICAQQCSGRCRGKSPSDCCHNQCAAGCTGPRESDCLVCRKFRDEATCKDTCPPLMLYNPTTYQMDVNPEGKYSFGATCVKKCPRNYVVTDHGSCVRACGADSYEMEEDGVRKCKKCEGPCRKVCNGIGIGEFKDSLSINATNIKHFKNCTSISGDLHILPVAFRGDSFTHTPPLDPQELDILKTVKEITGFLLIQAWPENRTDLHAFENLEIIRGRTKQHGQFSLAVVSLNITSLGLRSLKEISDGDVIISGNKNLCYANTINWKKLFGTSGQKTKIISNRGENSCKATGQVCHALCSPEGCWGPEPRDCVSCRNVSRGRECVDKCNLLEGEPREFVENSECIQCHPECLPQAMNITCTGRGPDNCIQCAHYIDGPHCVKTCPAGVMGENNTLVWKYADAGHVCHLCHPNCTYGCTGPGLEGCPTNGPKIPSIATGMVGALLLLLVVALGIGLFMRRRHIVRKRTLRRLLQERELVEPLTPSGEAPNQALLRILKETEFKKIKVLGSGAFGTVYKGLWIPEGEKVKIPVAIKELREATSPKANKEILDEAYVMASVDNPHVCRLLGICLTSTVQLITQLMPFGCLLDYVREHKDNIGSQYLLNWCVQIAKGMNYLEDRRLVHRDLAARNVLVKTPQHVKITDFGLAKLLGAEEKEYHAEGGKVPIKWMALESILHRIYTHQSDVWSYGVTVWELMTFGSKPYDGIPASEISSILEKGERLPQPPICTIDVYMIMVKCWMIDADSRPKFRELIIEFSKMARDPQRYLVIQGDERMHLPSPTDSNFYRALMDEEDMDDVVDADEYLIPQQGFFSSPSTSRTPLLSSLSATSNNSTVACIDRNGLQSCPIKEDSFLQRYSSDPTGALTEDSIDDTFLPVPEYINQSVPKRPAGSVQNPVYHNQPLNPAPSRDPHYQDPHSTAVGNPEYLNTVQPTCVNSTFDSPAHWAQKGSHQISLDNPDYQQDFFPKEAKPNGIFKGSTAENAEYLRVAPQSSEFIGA
readout.label: IC50

query: # query: IC50 of entry CC(=O)n1nc(C)c(-c2ccc(Cl)c(Cl)c2)c1N
result: > 100 µM

---

Biological target: Maternal embryonic leucine zipper kinase (Homo sapiens)
readout.label: IC50

query: # query: IC50 of entry CC(=O)n1nc(C)c(-c2ccc(Cl)c(Cl)c2)c1N
result: > 100 µM

---

Target: UniProtKB P06213
Sequence (P06213 28-758 limits assumed): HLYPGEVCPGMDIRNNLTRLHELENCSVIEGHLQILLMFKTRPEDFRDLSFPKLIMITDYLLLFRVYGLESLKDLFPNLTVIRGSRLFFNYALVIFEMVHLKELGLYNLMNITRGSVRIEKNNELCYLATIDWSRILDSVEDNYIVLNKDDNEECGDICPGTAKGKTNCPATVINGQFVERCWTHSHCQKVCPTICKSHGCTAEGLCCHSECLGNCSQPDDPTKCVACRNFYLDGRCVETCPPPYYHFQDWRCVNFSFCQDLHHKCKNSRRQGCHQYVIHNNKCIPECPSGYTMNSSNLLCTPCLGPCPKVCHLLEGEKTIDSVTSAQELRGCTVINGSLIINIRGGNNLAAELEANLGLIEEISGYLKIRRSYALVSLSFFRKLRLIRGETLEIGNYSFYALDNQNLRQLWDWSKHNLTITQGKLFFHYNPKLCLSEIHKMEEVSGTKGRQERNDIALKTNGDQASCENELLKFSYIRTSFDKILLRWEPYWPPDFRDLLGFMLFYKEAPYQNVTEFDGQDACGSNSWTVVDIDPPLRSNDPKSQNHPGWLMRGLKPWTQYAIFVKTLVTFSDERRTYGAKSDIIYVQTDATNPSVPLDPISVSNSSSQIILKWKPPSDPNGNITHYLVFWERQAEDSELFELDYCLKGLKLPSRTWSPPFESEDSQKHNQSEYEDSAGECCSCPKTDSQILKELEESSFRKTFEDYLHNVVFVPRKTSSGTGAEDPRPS
Sequence (P06213 763-1382 limits assumed): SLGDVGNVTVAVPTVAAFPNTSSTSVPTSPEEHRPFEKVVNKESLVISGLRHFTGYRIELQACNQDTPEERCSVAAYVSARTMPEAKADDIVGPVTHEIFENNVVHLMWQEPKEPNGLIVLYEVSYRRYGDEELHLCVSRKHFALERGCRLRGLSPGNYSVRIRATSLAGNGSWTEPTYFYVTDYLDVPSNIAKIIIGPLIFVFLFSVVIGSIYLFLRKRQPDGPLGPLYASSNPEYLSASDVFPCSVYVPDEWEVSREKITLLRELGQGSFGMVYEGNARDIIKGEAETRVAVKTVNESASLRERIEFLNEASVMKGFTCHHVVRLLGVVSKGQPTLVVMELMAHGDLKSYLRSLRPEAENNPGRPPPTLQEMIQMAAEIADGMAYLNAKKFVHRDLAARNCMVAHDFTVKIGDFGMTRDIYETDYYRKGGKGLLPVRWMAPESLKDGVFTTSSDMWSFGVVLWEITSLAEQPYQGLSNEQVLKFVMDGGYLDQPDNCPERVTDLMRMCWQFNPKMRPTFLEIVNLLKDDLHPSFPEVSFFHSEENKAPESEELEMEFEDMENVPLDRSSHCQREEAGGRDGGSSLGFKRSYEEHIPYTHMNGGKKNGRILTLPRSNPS
readout.label: IC50

query: # query: IC50 of entry CC(=O)n1nc(C)c(-c2ccc(Cl)c(Cl)c2)c1N
result: > 100 µM

---

Biological target: Serine/threonine-protein kinase TAO2 (Homo sapiens)
readout.label: IC50

query: # query: IC50 of entry CC(=O)n1nc(C)c(-c2ccc(Cl)c(Cl)c2)c1N
result: > 100 µM

---

Target: Mitogen-activated protein kinase kinase kinase kinase 2 (Homo sapiens, UniProt Q12851)
Assay: Inhibition of MAP4K2 (unknown origin)
pIC50: −log10 of the molar value.
readout.label: pIC50

query: # query: pIC50 of entry CC(=O)n1nc(C)c(-c2ccc(Cl)c(Cl)c2)c1N
result: < 4.00

---

Target: Inhibitor of nuclear factor kappa-B kinase subunit alpha (Homo sapiens, UniProt O15111)
Sequence (O15111 whole entry): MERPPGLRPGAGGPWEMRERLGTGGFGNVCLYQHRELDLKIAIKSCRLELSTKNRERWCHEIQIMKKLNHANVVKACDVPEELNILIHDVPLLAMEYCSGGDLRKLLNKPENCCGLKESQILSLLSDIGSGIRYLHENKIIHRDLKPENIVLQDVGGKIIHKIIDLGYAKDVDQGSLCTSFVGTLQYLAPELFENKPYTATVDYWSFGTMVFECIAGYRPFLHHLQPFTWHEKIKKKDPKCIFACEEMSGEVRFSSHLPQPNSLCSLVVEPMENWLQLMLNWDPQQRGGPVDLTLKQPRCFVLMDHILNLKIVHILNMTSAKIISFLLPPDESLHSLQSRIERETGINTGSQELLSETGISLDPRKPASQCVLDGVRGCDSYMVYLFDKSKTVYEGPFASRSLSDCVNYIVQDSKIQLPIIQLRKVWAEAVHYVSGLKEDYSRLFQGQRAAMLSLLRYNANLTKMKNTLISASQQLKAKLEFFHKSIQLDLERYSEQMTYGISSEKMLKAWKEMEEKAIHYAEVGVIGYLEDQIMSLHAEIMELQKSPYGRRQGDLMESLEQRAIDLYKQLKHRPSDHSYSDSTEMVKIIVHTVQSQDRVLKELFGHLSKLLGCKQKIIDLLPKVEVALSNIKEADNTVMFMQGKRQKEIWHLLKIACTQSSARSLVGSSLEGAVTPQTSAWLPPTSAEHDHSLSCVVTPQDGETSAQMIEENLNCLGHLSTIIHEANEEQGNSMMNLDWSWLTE
Experiment: Inhibition of recombinant full length human His-tagged IKKalpha expressed in baculovirus expression system using ERLLDDRHDSGLDSMKDEE peptide as substrate measured after 60 mins by ADP-Glo kinase assay
pIC50: −log10 of the molar value.
List of pIC50 values.

Field: example entries. Status: answers known.
query: Please tell me: pIC50 of Cc1nn(C(=O)C2CC2)c(N)c1-c1ccc(Cl)cc1 , system Inhibitor of nuclear factor kappa-B kinase subunit alpha (Homo sapiens, UniProt O15111)?
result: < 4.00

query: Check Cc1nn(C(=O)C2CC2)c(N)c1-c1ccc(Cl)c(Cl)c1 too.
result: < 4.00

query: Check CC(=O)n1nc(C)c(-c2cccc(Cl)c2)c1N too.
result: < 4.00

query: Check Cc1c(-c2ccc(Cl)c(Cl)c2)c(N)nn1C(=O)C1CCC1 too.
result: < 4.00

query: Check CC(=O)n1nc(C)c(Br)c1N too.
result: < 4.00

Continuing:
query: Please tell me: pIC50 of Cc1nn(C(=O)C2CCCC2)c(N)c1-c1ccc(Cl)c(Cl)c1 , system Inhibitor of nuclear factor kappa-B kinase subunit alpha (Homo sapiens, UniProt O15111)?
result: < 4.00

query: Check Cc1[nH]nc(N)c1-c1cccc(Br)c1 too.
result: < 4.00

query: Check CCCC(=O)n1nc(C)c(-c2ccc(Cl)c(Cl)c2)c1N too.
result: < 4.00
